Listed sequences paired with reported protein stability index
System: Saccharomyces cerevisiae
Assay: protein stability index of tFT-peptide fusion in deletion strain of DAS1 (PSI (0-1 scale)); higher = more stable (slower turnover)

>  <sequence-content>
VGGAVGGWRLVG

>  <protein stability index>
0.67

$$$$
>  <sequence-content>
ARWEVGLWRGAS

>  <protein stability index>
0.648

$$$$
>  <sequence-content>
VRGATGGWRLVG

>  <protein stability index>
0.682

$$$$
>  <sequence-content>
PSLATSFWRVVG

>  <protein stability index>
0.687

$$$$
>  <sequence-content>
RLIQPQPVQFLN

>  <protein stability index>
0.593

$$$$
>  <sequence-content>
GDKRNHLIKLLN

>  <protein stability index>
0.613

$$$$
>  <sequence-content>
KKHKKGMKQKIN

>  <protein stability index>
0.659

$$$$
>  <sequence-content>
ARWRVGLWRGAN

>  <protein stability index>
0.687

$$$$
>  <sequence-content>
VRGAVGEWRLVG

>  <protein stability index>
0.696

$$$$
>  <sequence-content>
LVIYLSCVACIN

>  <protein stability index>
0.0377

$$$$
>  <sequence-content>
FSMRWTFRYKVN

>  <protein stability index>
0.691

$$$$
>  <sequence-content>
LGILRQKMNHQN

>  <protein stability index>
0.685

$$$$
>  <sequence-content>
RLIQHLPVQFLN

>  <protein stability index>
0.636

$$$$
>  <sequence-content>
LKILRQKMNHQNE

>  <protein stability index>
0.656

$$$$
>  <sequence-content>
VRGAVGNWRLVG

>  <protein stability index>
0.69

$$$$
>  <sequence-content>
RLNQPLPVQFLN

>  <protein stability index>
0.605

$$$$
>  <sequence-content>
FSMRWTFRAWVN

>  <protein stability index>
0.425

$$$$
>  <sequence-content>
KKHKKGVKQKIN

>  <protein stability index>
0.743

$$$$
>  <sequence-content>
AYWRVGLWRGAS

>  <protein stability index>
0.699

$$$$

---

Each item that follows carries a reported protein stability index.
Test system: Saccharomyces cerevisiae
Test: protein stability index of tFT-peptide fusion (C-terminal peptide) (PSI (0-1 scale)); higher = more stable (slower turnover)
Conditions: genetic background: das1 deletion; temperature: 30 C

>  <sequence-content>
SFGLICFLILCG

>  <protein stability index>
0.206

$$$$
>  <sequence-content>
VCLCVIICSMSV

>  <protein stability index>
0.0324

$$$$
>  <sequence-content>
LYRSLLLSFCVL

>  <protein stability index>
0.528

$$$$
>  <sequence-content>
VWVVRGFLGFGG

>  <protein stability index>
0.43

$$$$
>  <sequence-content>
KTSVLLCVSTSF

>  <protein stability index>
0.427

$$$$
>  <sequence-content>
VKIEVICRVSLI

>  <protein stability index>
0.403

$$$$
>  <sequence-content>
KCWSGTVMVRLG

>  <protein stability index>
0.596

$$$$
>  <sequence-content>
LEDVLFVMVINI

>  <protein stability index>
0.308

$$$$
>  <sequence-content>
GIFYVRTIWSCG

>  <protein stability index>
0.192

$$$$
>  <sequence-content>
GFSPLFVLVFGV

>  <protein stability index>
0.312

$$$$
>  <sequence-content>
KRNLLYNIIVWI

>  <protein stability index>
0.357

$$$$
>  <sequence-content>
SGLPLVILFLCL

>  <protein stability index>
0.435

$$$$
>  <sequence-content>
GVFISFFFVFRF

>  <protein stability index>
0.269

$$$$
>  <sequence-content>
LFFGFFLIYFLG

>  <protein stability index>
0.384

$$$$
>  <sequence-content>
WVFMVILLVFLV

>  <protein stability index>
0.257

$$$$
>  <sequence-content>
ALRLVAFFWVPG

>  <protein stability index>
0.427

$$$$
>  <sequence-content>
SREQANTVYRLI

>  <protein stability index>
0.631

$$$$
>  <sequence-content>
RWGLCFVHVTMF

>  <protein stability index>
0.149

$$$$
>  <sequence-content>
EERKIFLKVVKV

>  <protein stability index>
0.398

$$$$
